Test system: MS2 coat protein
Experiment: apparent KD of MS2 coat protein, switch OFF state (with FMN for OFF switches, without FMN for ON switches); designed switch direction (-1 OFF switch, 1 ON switch): 1; higher = weaker reporter binding
Details: FMN input: 0 or 200 uM; Eterna round: R93 (includes R88 designs)
Kindly supply the reported apparent KD of MS2 coat protein values for the records listed here.
One number for each entry, in nM.

Use these answered entries as a reference point.
1. AGAAAUAAAAGAGAGGAUAUCCAAAAGAAAACAUGAGGAUCACCCAUGUAAAAGAAAAUAAAAUGGGAGAAGGCUCAAAAUAAAGA [Helter Skelter 2] :: 69.7
2. CGAAGACAUGAGGAUCACCCAUGUCGUCGUAACAGAGGAUAUGGGAACGCCAAGGGCGCAUCAGAAGGCUGAAAAC [Gediaton] :: 31
3. AUAAAAUAAAAGGAGGAUAUCCUUAAUAAAACAUGAGGAUCACCCAUGUAAAAAAUAAUAAAAUGGGAGAAGGCCUAAAAUAAAU [SS2 M 26] :: 64.2

Could you report apparent KD of MS2 coat protein for every entry in the following list?
1. CAUCACGCGCCUAAGGAUAUGUCUCACAAGACAUGAGGAUCACCCAUGUAGAAUAAAUAAAUGAUGCAGAAGGUGGAGCGCAUGC [Gerixeza]
2. AACAAUCUAUCUGAGGAUAUCAUGUAAAAGACAUGAGGAUCACCCAUGUUGCAGGAAACUGCUCAUGAGAAGGCAGAUAGAUUGA [SS2: 1125]
3. AAAAAAAAAAAUAAGGAUAUGUGAUCGGUGACAUGAGGAUCACCCAUGUAAGGCCUCCGGGACGGGCAGAAGGUAUAAAAAAAAA [Same State2-III]
4. AACAAUCUAUCUGAGGAUAUAUGUCAAAAGACAUGAGGAUCACCCAUGUAAAAACAUGAAAAAACAUAGAAGGCAGAUAGAUUGA [SS2: 1134]

RESULT:
[517, 13.8, 607, 120]

Please state, for each entry, its recorded apparent KD of MS2 coat protein.
1. AAUAAUUAUACGAAGGAUAUCGGUAAUUAGACAUGAGGAUCACCCAUGUAAUAUGGUUAAAUAUUCGAGAAGGUCGAGGGUGAAA [JR_SS002_Sub504]
2. CGGAGACAUGAGGAUCACCCAUGUGAGAAGAGGCGAGGAUAUCGAAAGAAAGAAGAGAAACGAGAAGGCGCGAGAU [salish99-SS1-069]

RESULT:
1: 29.4; 2: 29.8

Dear colleague, could you send me apparent KD of MS2 coat protein for each of the items below? Thanks.
1. AUAAAUAAAAUCAAGGAUAUCCAAAAAAAAACAUGAGGAUCACCCAUGUAAAAGAAAAUAAAAUGGGAGAAGGUGAAAAAUAAAU [SS2 M 6]
2. AAAAGACAUGAGGAUCACCCAUGUCAAAAGACAUGAGGAUAUGUACAGACUUCGGUCUGUACAGAAGGCAUGAAAA [SS1 - 1066]
3. AGCACGUGAUUGGAGGAUAUGUUGUAAGCAACAUGAGGAUCACCCAUGUCUGAGGCUGAAAAGCAGCAGAAGGCCGAUACAACCA [SS2-1.3]
4. AAAACACAUGAGGAUCACCCAUGUAUCUGGACCAUAGGAUAUCCGCACCCACUAAGGCGUGGAGAAGGGUGAGCCC [Antisoorti]
5. AACAAUCUAUCUGAGGAUAUCAUGUCAAAGACAUGAGGAUCACCCAUGUACCAGGAAACUGGAUAUGAGAAGGCAGAUAGAUUGA [SS2: 1119]
6. CAGAGACAUGAGGAUCACCCAUGUAGGAUUAUGGGAGGAUAUACAAAGACGAGAGUCAGAGUAGAAGGCCUAGGCC [salish99-ss1-145]
7. GAAAUACAUGAGGAUCACCCAUGUUAGGUAAAACAAGGAUAUCUAGAUAAAUAAAAAUAUAGAGAAGGUGUAUAAA [JR_SS001_Sub206]
8. AAAAUACAUGAGGAUCACCCAUGUCCGACAAAUCAAGGAUAUGAUAGCCAAACCAAGCUGUUAGAAGGUGAAAGAA [Edengere]

RESULT:
1: 68; 2: 23.6; 3: 110; 4: 124; 5: 204; 6: 43.2; 7: 25.1; 8: 208

Batch lookup, apparent KD of MS2 coat protein per entry.
1. AAAAGACAUGAGGAUCACCCAUGUUAAGACGUAGGAGGAUAUGUCGUGAAAAAAGACUUGACAGAAGGCCUGUGUC [SS1 - 38]
2. AAACCACAUGAGGAUCACCCAUGUAAAAAUAUGGGAGGAUAUCGGAAUAAAAUAAAGAAACGAGAAGGCCUAAAAA [59%, Flamingo, 5]
3. AAAAGACAUGAGGAUCACCCAUGUAAAAACUUGGGAGGAUAUGCUUGGAAAACAUGCUAUGCAGAAGGCUCUAGUC [SS1 - 14]
4. AACAUACAUGAGGAUCACCCAUGUUCCGGCAGGUCAGGAUAUUUAUCGAAUGAGUUCUAGAAAGAAGGGACAUAAA [JR_SS001_Sub008]
5. AGAAAUAAAACACAGGAUAUCCAAAAGAAAACAUGAGGAUCACCCAUGUAAAGAAAAUAAAAAUGGGAGAAGGGUGAAAAUAAGA [Mat - Same State 2 - JL mod - D15]
6. AGAAAACAUGAGGAUCACCCAUGUAGGAAUAUGGGAGGAUAUACAAAGACGAAAGUCAGAGUAGAAGGCCUAAGAA [salish99-SS1-087]
7. AAAAAAAAAAGUCAGGAUAUACAAAUUUUUACAUGAGGAUCACCCAUGUUAAAGAAAAAAAAAAAGUAGAAGGGACAAAAAAAAAA [Same State 2 - Omei 2]
8. AGGAGACAUGAGGAUCACCCAUGUGAGAAGAGGCGAGGAUAUCGAAAGAAAGAAGAGAAACGAGAAGGCGCGAGAC [salish99-SS1-029]

RESULT:
[20.4, 472, 123, 62.7, 31.5, 81.8, 15.4, 33.6]

----------
Test system: MS2 coat protein
Experiment: apparent KD of MS2 coat protein; designed switch direction (-1 OFF switch, 1 ON switch): 1; higher = weaker reporter binding
Settings: input ligand: microRNA oligo, concentration not stated
Please enter Satisfied where apparent KD of MS2 coat protein is greater than or equal to 70 nM, and Not satisfied where it is lower.

Look over these answered cases.
1. GGACGUCACAUUAACAUGAGGAUCACCCAUGUCAAAAGACAUGAGGAUAUGGAUCCUAAUUGGAUCCAGAAGGCAUGGACGUCC [Fiskers NG3ss - 39] (Eterna round: R96, puzzle: Same State NG 3) :: Satisfied
2. ACAUGAGACCAAGGAUAUGUUGUACCUACAUGUGACAUGAGGAUCACCCAUGUGGUAAGUAUGAGGCAGAAGGUGGAGAUAUGU [Equivalence 26 - Jieux - Same State NG 2] (Eterna round: R96, puzzle: Same State NG 2) :: Not satisfied
3. GUGGUCAGACAUGAGGAUCACCCAUGUGGAAUAAAUAAGGGAGAGGAUAUUUAAUAUAGGAUAUAAAAGAAGGCUCGGUUGGUG (Eterna round: R96, puzzle: Same State NG 3) :: Satisfied
4. AGCUAUUAAUCAGGAUAUAGUGACAUGAGGAUCACCCAUGUAUUGAUGAUGAAAUGUGGUCGCCGCUAGAAGGGAUUACUAACA [SameState NG2 #45] (Eterna round: R96, puzzle: Same State NG 2) :: Not satisfied
5. GUAGCAUACCGAGGAUAUUCAUUACAUGAGGAUCACCCAUGUUAAUUAUAGGCCAAAAGGCCUUGGGAGAAGGCGGAAUGCUAC [Xeonanis - 20 Mod13] (Eterna round: R96, puzzle: Same State NG 2) :: Not satisfied
6. AGGCUCAGACGAGGAUAUGAUCAUGGCGCUUCGGCGCAUACAUGAGGAUCACCCAUGUAGGGUGAUCAGAAGGCGUCUGAGCCA [SSNG2/8-A1] (Eterna round: R96, puzzle: Same State NG 2) :: Satisfied

QUERY: Reported apparent KD of MS2 coat protein at or above 70 nM? UGGCUCAGAGCAGGAUAUAUGUGGUCACAUGAGGAUCACCCAUGUCUCGAGCUUCGGCUCGAGGCAUAGAAGGGCUCUGAGCCA [SSNG2/5-B2] (Eterna round: R96, puzzle: Same State NG 2)
RESULT: Not satisfied

QUERY: Evaluate AAAAUGCGGGAAGGAUAUGGGAAAGGAAGUGUACCAGAAGGUCUCGCGGCCAAGGACAUGAGGAUCACCCAUGUGAACGCCCGA [PowerStrip SSNG 1.9] (Eterna round: R96, puzzle: Same State NG 1) : apparent KD of MS2 coat protein at minimum 70 nM?
RESULT: Not satisfied
